Test: Preliminary solubility study of Pomalidomide Form O in a range of solvents
Assay type: physicochemical
Conditions: ethanol, organic solvent or mixture, thermodynamic from solid; RT; read-out: solubility in EtOH
Experimental: A preliminary study of the solubility of Pomalidomide Form O was performed in a range of solvents and under the operating conditions given in the following table 5: […]

compound | solubility
Nc1cccc2c1C(=O)N(C1CCC(=O)NC1=O)C2=O (racemic) [Pomalidomide Form O] | < 1000 µg/mL
